These measurements were taken from the METLIN SMRT retention time set (Domingo-Almenara et al. 2019).

method.description: gradient 5% acetonitrile 3 min, to 50% in 2 min, to 85% in 15 min, held 3 min, 100 µL/min
conditions.used: column: Zorbax Extend-C18 2.1 x 50 mm; eluents: water / acetonitrile, 0.1% formic acid
observed.property: RP-LC retention time (s)

Cc1c(-c2noc(-c3ccccc3)n2)nnn1Cc1ccccc1	1060
CCOc1cccc(-c2noc(Cn3ccn(-c4ccc(Cl)cc4)c(=O)c3=O)n2)c1	895
COc1ccc(-c2nc(Cn3ccn4nc(-c5ccc6c(c5)OCO6)cc4c3=O)c(C)o2)cc1	1100

P: CCOC(=O)c1c[nH]c2c(C(=O)OCC)cccc2c1=O
Q: O=C(Cc1cccs1)N1CCc2c([nH]c3ccccc23)C1c1ccc(F)cc1 (stereo unspecified)
Please state the entry with greater RP-LC retention time among P and Q . Returns: label corresponding to the selected item.
Q
(Q: 1130 s, P: 735 s)
